tested on: HDQ-P1; experiment: normalised response (% of control), CellTiter-Glo; higher = more viable cells (100 = DMSO, 0 = benzethonium chloride kill control); conditions: incubation time: 72 h
MEASURED PROPERTY: normalised response
Include the unit after the number when you answer.

Recorded results for 5 compounds are shown here.
CCn1c(C(=O)N(C2CC2)C2CC2)cc2c3c(ncn3C)c(Nc3cc(C)n(C)n3)nc21 (10000 nM) ... 101%
CNC(=O)c1ccccc1Sc1ccc2c(/C=C/c3ccccn3)n[nH]c2c1 [Axitinib] (10000 nM) ... 77.8%
COc1cc(Nc2c(C#N)cnc3cc(OCCCN4CCN(C)CC4)c(OC)cc23)c(Cl)cc1Cl [Bosutinib] (10000 nM) ... 9.28%
CCNC(=O)c1noc(-c2cc(C(C)C)c(O)cc2O)c1-c1ccc(CN2CCOCC2)cc1 [NVP-AUY922] (1000 nM) ... 23.6%
CO[C@@]12[C@H](COC(N)=O)C3=C(C(=O)C(C)=C(N)C3=O)N1C[C@@H]1N[C@@H]12 [Mitomycin C] (10000 nM) ... 84.1%

State recorded normalised response for all listed compounds.
1. CN(C)C(=N)NC(=N)N [Metformin] (100000 nM)
2. O=C(CCCCCCC(=O)Nc1ccccc1)NO [Vorinostat] (10000 nM)
3. CCN(CC)CCCC(C)Nc1ccnc2cc(Cl)ccc12 (stereo not drawn) [Chloroquine] (100000 nM)
4. CC1(C)CCC(c2ccc(Cl)cc2)=C(CN2CCN(c3ccc(C(=O)NS(=O)(=O)c4ccc(N[C@H](CCN5CCOCC5)CSc5ccccc5)c(S(=O)(=O)C(F)(F)F)c4)cc3)CC2)C1 [Navitoclax] (10000 nM)
5. CC(C)(C)NC(=O)[C@H]1CC[C@H]2[C@@H]3CC[C@H]4NC(=O)C=C[C@]4(C)[C@H]3CC[C@]12C [Finasteride] (10000 nM)
6. CN[C@@H](C)C(=O)N[C@H]1CN(C(=O)CC(C)C)CC[C@H]2CC[C@@H](C(=O)NC(c3ccccc3)c3ccccc3)N2C1=O [AT-406] (10000 nM)

Outgoing:
95.4%
64.3%
0.97%
66.8%
95.7%
84.5%

Please supply normalised response for each of the following items, keeping them in order.
1. CC[C@H](CO)Nc1nc(NCc2ccccc2)c2ncn(C(C)C)c2n1 [Seliciclib] (10000 nM)
2. O=[N+]([O-])c1ccc2c(c1)S(=O)(=O)C=C2 [Stattic] (50000 nM)

Outgoing:
1: 84.4%; 2: 0.11%

---

tested on: BT-474; experiment: drug sensitivity score (DSS), CellTox Green (DSS (AUC-based score)); higher = stronger drug effect (viability inhibition or cytotoxicity); extreme values may be limits of the assay; conditions: incubation time: 72 h
Label label 1 for high-side drug sensitivity score (at or above 0.2) and label 0 for low-side drug sensitivity score (below it).

# example entries with known answers
Cc1cn(-c2cc(NC(=O)c3ccc(C)c(Nc4nccc(-c5cccnc5)n4)c3)cc(C(F)(F)F)c2)cn1 ... label 0
CN[C@@H](C)C(=O)N[C@H]1CN(C(=O)CC(C)C)CC[C@H]2CC[C@@H](C(=O)NC(c3ccccc3)c3ccccc3)N2C1=O ... label 0
CN(Cc1cnc2nc(N)nc(N)c2n1)c1ccc(C(=O)N[C@@H](CCC(=O)O)C(=O)O)cc1 [Methotrexate] ... label 0
COc1cc(Nc2c(C#N)cnc3cc(OCCCN4CCN(C)CC4)c(OC)cc23)c(Cl)cc1Cl ... label 1
CC1(C)CCC(c2ccc(Cl)cc2)=C(CN2CCN(c3ccc(C(=O)NS(=O)(=O)c4ccc(N[C@H](CCN5CCOCC5)CSc5ccccc5)c(S(=O)(=O)C(F)(F)F)c4)cc3)CC2)C1 ... label 1

Incoming: Answer whether drug sensitivity score of CC(O)(CS(=O)(=O)c1ccc(F)cc1)C(=O)Nc1ccc(C#N)c(C(F)(F)F)c1 (centres undefined) [Bicalutamide] is greater than or equal to 0.2.
Outgoing: label 0

Incoming: Next up: CCn1c(C(=O)N(C2CC2)C2CC2)cc2c3c(ncn3C)c(Nc3cc(C)n(C)n3)nc21
Outgoing: label 0

Incoming: Follow-up entry: O=C(CCCCCCC(=O)Nc1ccccc1)NO
Outgoing: label 1

Incoming: // repeat for Cc1nc(C(=O)NCC(=O)O)c(O)c2ccc(Oc3ccccc3)cc12 and report
Outgoing: label 0

---

So I've got a bunch of compounds here, and I need their normalised response values.
test system: MCF-10A; test: normalised response (% of control), CellTox Green; higher = less cell death (100 = DMSO, 0 = benzethonium chloride kill control); details: incubation time: 72 h
Numbers only, in %.

Here's what some known entries look like.
Cc1nc(C(=O)NCC(=O)O)c(O)c2ccc(Oc3ccccc3)cc12 [FG-4592] (100 nM) ... 101
O=C(O)CNC(=O)c1c(O)c2ccccc2n(Cc2ccccc2)c1=O [IOX-2] (500 nM) ... 95.2
CC(O)(CS(=O)(=O)c1ccc(F)cc1)C(=O)Nc1ccc(C#N)c(C(F)(F)F)c1 (stereo unspecified) [Bicalutamide] (10000 nM) ... 106
CCn1c(C(=O)N(C2CC2)C2CC2)cc2c3c(ncn3C)c(Nc3cc(C)n(C)n3)nc21 (10000 nM) ... 109
O=C(CCCCCCC(=O)Nc1ccccc1)NO [Vorinostat] (100 nM) ... 91.4

Incoming: What normalised response value was documented for this compound, CC(C)C[C@H](NC(=O)[C@@H](COC(C)(C)C)NC(=O)[C@H](Cc1ccc(O)cc1)NC(=O)[C@H](CO)NC(=O)[C@H](Cc1c[nH]c2ccccc12)NC(=O)[C@H](Cc1cnc[nH]1)NC(=O)[C@@H]1CCC(=O)N1)C(=O)N[C@@H](CCCNC(=N)N)C(=O)N1CCC[C@H]1C(=O)NNC(N)=O [Goserelin] (10000 nM) ?
Outgoing: 75.6

---

tested on: CAL-148; assay: drug sensitivity score (DSS), CellTiter-Blue viability (DSS (AUC-based score)); higher = stronger viability inhibition; extreme values may be limits of the assay; details: incubation time: 72 h
Assignment: determine reported drug sensitivity score for the given compounds.
One number for each entry.

Illustrative cases are given below, each with its answer.
Cc1cn(-c2cc(NC(=O)c3ccc(C)c(Nc4nccc(-c5cccnc5)n4)c3)cc(C(F)(F)F)c2)cn1 ... 0
CCNC(=O)CCC/C=C\C[C@@H]1[C@@H](/C=C/[C@@H](O)CCc2ccccc2)[C@H](O)C[C@@H]1O ... 0

# context switch: different compound, same drug sensitivity score
Incoming: Look at this compound and give its reported drug sensitivity score. CC(C)C[C@H](NC(=O)[C@@H](COC(C)(C)C)NC(=O)[C@H](Cc1ccc(O)cc1)NC(=O)[C@H](CO)NC(=O)[C@H](Cc1c[nH]c2ccccc12)NC(=O)[C@H](Cc1cnc[nH]1)NC(=O)[C@@H]1CCC(=O)N1)C(=O)N[C@@H](CCCNC(=N)N)C(=O)N1CCC[C@H]1C(=O)NNC(N)=O
Outgoing: 0

---

test system: HDQ-P1; assay: normalised response (% of control), CellTiter-Glo; higher = more viable cells (100 = DMSO, 0 = benzethonium chloride kill control); conditions: incubation time: 72 h
MEASURED PROPERTY: normalised response (%)
One number for each entry, in %.

C=CCn1c(=O)c2cnc(Nc3ccc(N4CCN(C)CC4)cc3)nc2n1-c1cccc(C(C)(C)O)n1 [MK1775] (1 nM) ... 87.7
Cc1cc(Nc2nc(N[C@@H](C)c3ncc(F)cn3)ncc2Cl)[nH]n1 [AZD1480] (0.1 nM) ... 104
CN(C)C(=N)NC(=N)N [Metformin] (10000 nM) ... 97.2
O=C(CCCCCCC(=O)Nc1ccccc1)NO [Vorinostat] (1 nM) ... 104
O=C(CCCCCCC(=O)Nc1ccccc1)NO [Vorinostat] (10 nM) ... 94.6

# map each compound to its normalised response
1. CCN(CC)CCCC(C)Nc1ccnc2cc(Cl)ccc12 (centres undefined) [Chloroquine] (10 nM)
2. CC(C)C[C@H](NC(=O)[C@@H](COC(C)(C)C)NC(=O)[C@H](Cc1ccc(O)cc1)NC(=O)[C@H](CO)NC(=O)[C@H](Cc1c[nH]c2ccccc12)NC(=O)[C@H](Cc1cnc[nH]1)NC(=O)[C@@H]1CCC(=O)N1)C(=O)N[C@@H](CCCNC(=N)N)C(=O)N1CCC[C@H]1C(=O)NNC(N)=O [Goserelin] (1 nM)
3. C/C(=C\c1csc(C)n1)[C@@H]1C[C@@H]2O[C@]2(C)CCC[C@H](C)[C@H](O)[C@@H](C)C(=O)C(C)(C)[C@@H](O)CC(=O)N1 [Ixabepilone] (1 nM)
4. O=[N+]([O-])c1ccc2c(c1)S(=O)(=O)C=C2 [Stattic] (50 nM)

Outgoing:
99
97.3
98.5
100

For each of the items listed, what is its normalised response?
1. CC(=O)[C@]1(O)Cc2c(O)c3c(c(O)c2[C@@H](O[C@H]2C[C@H](N)[C@H](O)[C@H](C)O2)C1)C(=O)c1ccccc1C3=O [Idarubicin] (1 nM)
2. O=C(O)CNC(=O)c1c(O)c2ccccc2n(Cc2ccccc2)c1=O [IOX-2] (5 nM)
3. CC1(COc2ccc3c(c2)ncn3-c2ccc3cccc(N4CCC(N)CC4)c3n2)COC1 [Crenolanib] (10 nM)
4. CC(O)(CS(=O)(=O)c1ccc(F)cc1)C(=O)Nc1ccc(C#N)c(C(F)(F)F)c1 (centres undefined) [Bicalutamide] (1000 nM)
5. O=C(O)CNC(=O)c1c(O)c2ccccc2n(Cc2ccccc2)c1=O [IOX-2] (5000 nM)

Outgoing:
1. 99.7
2. 100
3. 103
4. 108
5. 100
